tested on: RARa:RXR (NR concentration 270 nM, RXRa partner concentration 90 nM); experiment: PBM binding z-score (relative to random genomic background probes); higher = stronger binding; sequences stand for … in GC…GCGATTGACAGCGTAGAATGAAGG
Please use satisfied whenever PBM binding z-score is not below 1, and not satisfied whenever it is.

ACACACAGGTGAGTGAAGGTAACTCAGCTGGACG : not satisfied
TCTTGTAGATCAGTAGAGGTTAAGAAAGTGCGCT : satisfied
ACTCGGACGACAAAGGTCAGAGCTACGCCAGTGA : satisfied
CGTCCATGGTCAGAGAGGTCAGTGAATGCCGAGT : satisfied
TATATTAGTTGATTAGGGCAACCGAAACAGCGGA : not satisfied

Query: Evaluate AGCCAAAGTTCATCTAGGTAACGTAAGATATGCT : PBM binding z-score at minimum 1?
Reply: satisfied

Query: Would you mind doing ATCTCTAGGTAAAGTTCAGTAAAAGATCGATAGA as well?
Reply: satisfied

Query: Would you mind doing GGAACGAGGGCAGGTTGATAGCAGAGTTTGATGG as well?
Reply: not satisfied

Query: Would you mind doing ACTCGGAGGACAAAGCTCAGAGCTACGCCAGTGA as well?
Reply: not satisfied

Query: Would you mind doing TCTGCTAGGTCAGTTAGTCAGCTAACGAGCTGCC as well?
Reply: not satisfied

Query: Would you mind doing ATATGTTGGTTACATCCGGGTCATTCAGGCTATG as well?
Reply: satisfied

Query: Would you mind doing TGAATGAGGTTATAAGGTCAGGGAACGTTGCAAA as well?
Reply: satisfied

Query: Would you mind doing GGAACGCGGGCATTCGAGTTGATAGCATGGCGAT as well?
Reply: not satisfied

Query: Would you mind doing TCTATTAGTTGAATAGGGCAACCGAAACAGCGGA as well?
Reply: not satisfied

Query: Would you mind doing CAAACTAGGTCACGAAAGGTAAAAGTCGAATGAC as well?
Reply: satisfied

Query: Would you mind doing CCTAGTTGGTCAAGATCACACACGCTATAGGTAC as well?
Reply: not satisfied

Query: Would you mind doing ATCGAAAGGTGGAGGTGAGTATAGAGAAAGGGAA as well?
Reply: not satisfied

Query: Would you mind doing TCGATTAGTTGATTAGGGCAACCGAAACAGCGGA as well?
Reply: not satisfied

* * *

tested on: FXR:RXRa (NR concentration 270 nM, RXRa partner concentration 90 nM); assay: PBM binding z-score (relative to random genomic background probes); higher = stronger binding; sequences stand for … in GC…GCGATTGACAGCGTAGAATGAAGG
Endpoint: PBM binding z-score
Give bare numbers.

Dear colleague, could you please provide PBM binding z-score for the sequences listed below?
1. CGTCCAAGGTCAGAGAGGTCAGTAAATGCCGAGT
2. CAAACTAGGTCACCGGAATGTCAAAGTCCGCATG
3. ACTTACGGGTCAACGAGGTTCTAGCACGCGTATA
4. TCATATAGGTAAAAGGTGAAAGTTGGTGTGGTAA

Reply:
1: 5.8; 2: 4.57; 3: 6.65; 4: 2.15

Dear colleague, could you please provide PBM binding z-score for the sequences listed below?
1. CATACAAGGTCAGCTAGGCCAGAGTAGGGACGGC
2. ATCTCTAGGTGACCAAGTTCAGTGAATGCCGAAC
3. GCTATTAGTTGAAAAGGCAACCGAATGATTCTCG
4. TCTATTAGTTGATTAGGGCAACCGTAACAGCGGA
5. ATATGTAGGTTATCGGATCATTCAGTTTGCGCAT
6. CGTCCAAGGTCAATGCTAAGTCAGTGAAAGCATT
7. TCATATCGGTAATACAGGTGAAAGTCGGCATCTA

Reply:
5.48
0.185
-0.25
0.375
0.778
6.87
0.812
